# System: VpPLD-(His)6-WT
# Reported Conditions: 50 mM Tris pH 8.0; lipid monolayer, interfacial binding (not a 1:1 site)
Value Kind: MIP (mN m^-1)
One number for each entry, in mN m^-1.

Observe how each entry below is paired with its result.
INSERT INTO assay_data (compound, measurement) VALUES
  ('CCCCCCCCCCCCCC(=O)OC[C@H](COP(=O)(O)OCC(O)CO)OC(=O)CCCCCCCCCCCCC (mixture of isomers) [DMPG]', 26.8),
  ('CCCCCCCCCCCCCC(=O)OC[C@H](COP(=O)(O)OC[C@H](N)C(=O)O)OC(=O)CCCCCCCCCCCCC [DMPS]', 38.5),
  ('CCCCCCCCCCCCCC(=O)OC[C@H](COP(=O)(O)OCCN)OC(=O)CCCCCCCCCCCCC [DMPE]', 29.8);

Per the records, this compound ( CCCCCCCCCCCCCC(=O)OC[C@H](COP(=O)([O-])OCC[N+](C)(C)C)OC(=O)CCCCCCCCCCCCC [DMPC] ) has MIP equal to 37.4
